Origin of measurements: patent US20020115661A1

# Assay overview: Plasma CI-1034 concentrations in anesthetized dogs
# Type: in vivo
# Experimental conditions: intravenous, dog, 40 mg/kg, 5 minutes postdose, N = 1
Quantity kind: concentration at 5 min (µg/mL)
Dear colleague, please return just the value in µg/mL, with no unit written.

Please indicate concentration at 5 min recorded for CCc1cc(C2=C(C(=O)[O-])N(c3ccccc3C(F)(F)F)S(=O)(=O)c3ccccc32)cc2c1OCO2.[K+] [CI-1034, monopotassium salt]
395

---

# Assay overview: Oral rising single-dose pharmacokinetic study in healthy subjects
# Type: in vivo, human
# Experimental conditions: human, plasma, single oral doses, Study 1034-001, read-out: time to maximal plasma concentrations (tmax)
Quantity kind: Tmax

Please indicate Tmax recorded for `CCc1cc(C2=C(C(=O)[O-])N(c3ccccc3C(F)(F)F)S(=O)(=O)c3ccccc32)cc2c1OCO2.[K+]`
1 to 3 h

---

# Assay overview: Plasma CI-1034 concentrations in anesthetized dogs
# Type: in vivo
# Experimental conditions: intravenous, dog, 30 mg/kg, 30 minutes postdose
Quantity kind: concentration at 30 min (µg/mL)
Dear colleague, please return just the value in µg/mL, with no unit written.

Please indicate concentration at 30 min recorded for CCc1cc(C2=C(C(=O)[O-])N(c3ccccc3C(F)(F)F)S(=O)(=O)c3ccccc32)cc2c1OCO2.[K+] [CI-1034, monopotassium salt]
209

---

# Assay overview: Octanol-aqueous partition coefficient, shake-flask method with HPLC
# Format: physicochemical
# Experimental conditions: pH 1, 0.1N Hydrochloric Acid
Quantity kind: logD
Lab note: record just the number, no unit beside it.

Please indicate logD recorded for CCc1cc(C2=C(C(=O)[O-])N(c3ccccc3C(F)(F)F)S(=O)(=O)c3ccccc32)cc2c1OCO2.[K+] [CI-1034, monopotassium salt]
3.24

---

# Assay overview: Octanol-aqueous partition coefficient, shake-flask method with HPLC
# Assay type: physicochemical
# Experimental conditions: pH 4, 0.05 M Sodium Acetate Buffer
Quantity kind: logD

Please indicate logD recorded for CCc1cc(C2=C(C(=O)[O-])N(c3ccccc3C(F)(F)F)S(=O)(=O)c3ccccc32)cc2c1OCO2.[K+] [CI-1034, monopotassium salt]
2.93

---

# Assay overview: Oral rising single-dose pharmacokinetic study in healthy subjects
# Assay type: in vivo, human
# Experimental conditions: human, plasma, single oral doses, Study 1034-001, read-out: elimination half-life (t½)
Quantity kind: half-life

Please indicate half-life recorded for CCc1cc(C2=C(C(=O)[O-])N(c3ccccc3C(F)(F)F)S(=O)(=O)c3ccccc32)cc2c1OCO2.[K+] [CI-1034]
2 to 4 h

---

# Assay overview: Plasma CI-1034 concentrations in anesthetized dogs
# Assay type: in vivo
# Experimental conditions: intravenous, dog, 60 mg/kg, 60 minutes postdose
Quantity kind: concentration at 60 min

Please indicate concentration at 60 min recorded for CCc1cc(C2=C(C(=O)[O-])N(c3ccccc3C(F)(F)F)S(=O)(=O)c3ccccc32)cc2c1OCO2.[K+] [CI-1034, monopotassium salt]
337 µg/mL

---

# Assay overview: Plasma CI-1034 concentrations in anesthetized dogs
# Type: in vivo
# Experimental conditions: intravenous, dog, 30 mg/kg, 60 minutes postdose
Quantity kind: concentration at 60 min (µg/mL)
Dear colleague, please return just the value in µg/mL, with no unit written.

Please indicate concentration at 60 min recorded for CCc1cc(C2=C(C(=O)[O-])N(c3ccccc3C(F)(F)F)S(=O)(=O)c3ccccc32)cc2c1OCO2.[K+] [CI-1034, monopotassium salt]
157
